Tested on: NIH/3T3 cells, CRL-1658
testDescription: Cytotoxicity colorimetric (tetrazolium) assay
Format: cell-based, mouse
conditionLabel: NIH/3T3 cells; one hour with compound in serum-free media
readoutType: EC50 NIH 3T3 (cytotoxicity) (µg/mL)
Numbers only, in µg/mL.

- NCCCOc1cc(OCCCN)cc(-c2ccc(F)c(-c3cc(-c4cc(OCCCN)cc(OCCCN)c4)ccc3F)c2)c1: 146.3

Fill in EC50 NIH 3T3 (cytotoxicity) for each of the 3 compounds listed.
1. Cc1cc(-c2cc(OCCCN)cc(OCCCN)c2)cc(-c2cc(-c3cc(OCCCN)cc(OCCCN)c3)cc(C)c2F)c1F
2. NCCc1cccc(-c2cc3c(c(-c4cccc(CCN)c4)c2)CCc2ccccc2C3=O)c1
3. N=C(N)NCCCc1cccc(-c2cc(-c3cccc(CCCNC(=N)N)c3)cc(C(F)(F)F)c2)c1

*A*
[59.19, 20.9, 83.5]

###

Test system: HepG2, HB-8065
testDescription: Cytotoxicity colorimetric (tetrazolium) assay
Type: cell-based, human
conditionLabel: HepG2 cells; one hour with compound in serum-free media
readoutType: EC50 HepG2 (cytotoxicity) (µg/mL)
One number for each entry, in µg/mL.

Take a look at these entries with their results.
- Cc1cc(-c2cc(OCCCN)cc(OCCCN)c2)cc(-c2cc(C)cc(-c3cc(OCCCN)cc(OCCCN)c3)c2)c1: 164
- NCCCOc1cc(OCCCN)cc(-c2ccc(F)c(-c3cc(-c4cc(OCCCN)cc(OCCCN)c4)ccc3F)c2)c1: 302

Fill in EC50 HepG2 (cytotoxicity) for each of the 2 molecules listed.
1. NCCCN(CCCN)Cc1cccc(-c2ccc3sc4ccc(-c5cccc(CN(CCCN)CCCN)c5)cc4c3c2)c1
2. NCCc1cccc(-c2cc3c(c(-c4cccc(CCN)c4)c2)CCc2ccccc2C3=O)c1

*A*
212
27.5

###

Test system: Pseudomonas aeruginosa ATCC 10145
testDescription: Minimum Inhibitory Concentration (MIC), modified microbroth dilution
Assay type: cell-based
conditionLabel: P. aeruginosa (10145); overnight incubation (18 hours)
Please provide measured MIC50 P. Aeruginosa for the entries that follow.

- NCCNc1ccc(-c2ccc3sc4ccc(-c5ccc(NCCN)cc5)cc4c3c2)cc1: >50 µg/mL
- NCCn1cc(-c2cccc(-c3cn(CCN)nn3)c2)nn1: >100 µg/mL
- NCCCNC(=O)c1cc(C(=O)NCCCN)cc(-c2ccc3sc4ccc(-c5cc(C(=O)NCCCN)cc(C(=O)NCCCN)c5)cc4c3c2)c1: >100 µg/mL
- NCCCn1c2ccccc2c2ccccc21: >100 µg/mL
- NCCCn1cc(-c2cccc(-c3cn(CCCN)nn3)c2)nn1: >100 µg/mL
- CCn1c2ccc(-c3cc(C(=O)NCCN)cc(C(=O)NCCN)c3)cc2c2cc(-c3cc(C(=O)NCCN)cc(C(=O)NCCN)c3)ccc21: >50 µg/mL

*Q* State its MIC50 P. Aeruginosa for this compound: NCCNC(=O)c1cc(C(=O)NCCN)cc(-c2ccc3oc4ccc(-c5cc(C(=O)NCCN)cc(C(=O)NCCN)c5)cc4c3c2)c1
*A* >50 µg/mL

###

System: NIH/3T3 cells, CRL-1658
testDescription: Cytotoxicity colorimetric (tetrazolium) assay
Type: cell-based, mouse
conditionLabel: NIH/3T3 cells; one hour with compound in serum-free media
readoutType: EC50 NIH 3T3 (cytotoxicity) (µg/mL)
One number for each entry, in µg/mL.

Take a look at these entries with their results.
- N=C(N)NCCc1cc(CCNC(=N)N)cc(-c2cc(F)cc(-c3cc(F)cc(-c4cc(CCNC(=N)N)cc(CCNC(=N)N)c4)c3)c2)c1 [Compound 151]: 72.14
- NCCN(CCN)Cc1ccc(F)c(-c2ccc3sc4ccc(-c5cc(CN(CCN)CCN)ccc5F)cc4c3c2)c1 [Compound 180]: 43.1
- NCCCOc1cc(-c2ccc3sc4ccc(-c5cc(OCCCN)c(OCCCN)c(OCCCN)c5)cc4c3c2)cc(OCCCN)c1OCCCN [Compound 184]: 57
- NCCc1cccc(-c2ccc3c(c2)C(=O)c2cc(-c4cccc(CCN)c4)ccc2CC3)c1 [Compound 153]: 53.3
- CCn1c2ccc(-c3cc(C(=O)NCCN)cc(C(=O)NCCN)c3)cc2c2cc(-c3cc(C(=O)NCCN)cc(C(=O)NCCN)c3)ccc21 [Compound 169]: 450
- NCCc1cccc(-c2ccc3c(c2)C(=O)c2cc(-c4cccc(CCN)c4)cc(-c4cccc(CCN)c4)c2CC3)c1 [Compound 154]: 53.4
- NCCCNC(=O)c1cc(C(=O)NCCCN)cc(-c2ccc3sc4ccc(-c5cc(C(=O)NCCCN)cc(C(=O)NCCCN)c5)cc4c3c2)c1 [Compound 171]: 46.5

Please find the next compound below.
*Q* State its EC50 NIH 3T3 (cytotoxicity) for this compound: Nc1cccc(-c2ccc3[nH]c4ccc(-c5cccc(N)c5)cc4c3c2)c1 [Compound 177]
*A* 487

###

System: E. Coli ATCC 25922
testDescription: Minimum Inhibitory Concentration (MIC), modified microbroth dilution
Assay type: cell-based
conditionLabel: E. coli (25922); overnight incubation (18 hours)
readoutType: MIC50 E. coli (µg/mL)
One number for each entry, in µg/mL.

• N=C(N)NCCCc1cccc(-c2cc(-c3cccc(CCCNC(=N)N)c3)cc(C(F)(F)F)c2)c1 [Compound 114] = 3.13
• Cc1cc(-c2cc(OCCCN)cc(OCCCN)c2)cc(-c2cc(-c3cc(OCCCN)cc(OCCCN)c3)cc(C)c2F)c1F [Compound 149] = 3.13
• NCCc1cccc(-c2cc3c(c(-c4cccc(CCN)c4)c2)CCc2ccccc2C3=O)c1 [Compound 152] = 3.13

Fill in MIC50 E. coli for each of the 3 compounds listed.
1. NCCCN(CCCN)Cc1cccc(-c2ccc3sc4ccc(-c5cccc(CN(CCCN)CCCN)c5)cc4c3c2)c1 [Compound 181]
2. O=C(Nc1ccc(-c2ccnc(N3CCNCC3)c2)cc1F)Nc1ccc(-c2ccnc(N3CCNCC3)c2)cc1F [Compound 142]
3. Nc1cccc(-c2ccc3[nH]c4ccc(-c5cccc(N)c5)cc4c3c2)c1 [Compound 177]

*A*
1: 3.13; 2: 12.5; 3: 1.56

###

Tested on: E. Coli ATCC 25922
testDescription: Minimum Inhibitory Concentration (MIC), modified microbroth dilution
Type: cell-based
conditionLabel: E. coli (25922); overnight incubation (18 hours)
readoutType: MIC50 E. coli

- NCCNC(=O)c1cc(C(=O)NCCN)cc(-c2ccc3oc4ccc(-c5cc(C(=O)NCCN)cc(C(=O)NCCN)c5)cc4c3c2)c1: >50 µg/mL
- NCCCNC(=O)c1cc(C(=O)NCCCN)cc(-c2ccc3sc4ccc(-c5cc(C(=O)NCCCN)cc(C(=O)NCCCN)c5)cc4c3c2)c1: >100 µg/mL
- NCCn1cc(-c2cccc(-c3cn(CCN)nn3)c2)nn1: >100 µg/mL
- NCCCn1c2ccccc2c2ccccc21: >100 µg/mL
- NCCCOc1cc(OCCCN)cc(-c2ccc3c(c2)c2ccccc2n3CCCN)c1: >50 µg/mL
- NCCCCn1cc(-c2cccc(-c3cn(CCCCN)nn3)c2)nn1: >100 µg/mL

Please find the next compound below.
*Q* State its MIC50 E. coli for this compound: NCCCOc1cc(OCCCN)cc(-c2cc(-c3cc(-c4cc(OCCCN)cc(OCCCN)c4)cc(C(F)(F)F)c3)cc(C(F)(F)F)c2)c1
*A* 1.56 to 3.13 µg/mL
